Each item that follows carries a reported RBD binding.
target: SARS-CoV-2 receptor binding domain (RBD), wild type (BEI NR52309) (SARS-CoV-2, UniProt P0DTC2 319-541); experiment: BLI competition on His-tagged RBD, signal of the 2nd Ab after 1st Ab 324
Measurement Type: RBD binding

Binder: mAb 52 (antibody, V domains shown) VH: QVQLVQSGAEVKKPGSSVKVSCKASGYTFTSYGISWVRQAPGQGLEWMGGIIPMFGTTNYAQKFQGRVTITADKSTSTAYMELSSLRSEDTAVYYCARDRGDTIDYWGQGTLVTVSS VL: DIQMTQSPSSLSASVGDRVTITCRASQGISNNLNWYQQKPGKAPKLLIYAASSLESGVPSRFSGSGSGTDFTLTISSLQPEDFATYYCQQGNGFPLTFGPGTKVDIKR
Recorded Result: 1.5
--
Binder: mAb 82 (antibody, V domains shown) VH: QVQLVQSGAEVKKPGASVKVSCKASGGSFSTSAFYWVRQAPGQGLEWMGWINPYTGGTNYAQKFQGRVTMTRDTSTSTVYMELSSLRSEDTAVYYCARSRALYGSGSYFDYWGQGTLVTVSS VL: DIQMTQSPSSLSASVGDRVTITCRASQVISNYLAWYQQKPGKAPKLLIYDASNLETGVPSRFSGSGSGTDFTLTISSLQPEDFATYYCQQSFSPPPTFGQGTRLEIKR
Recorded Result: 0.8
--
Binder: mAb 46 (antibody, V domains shown) VH: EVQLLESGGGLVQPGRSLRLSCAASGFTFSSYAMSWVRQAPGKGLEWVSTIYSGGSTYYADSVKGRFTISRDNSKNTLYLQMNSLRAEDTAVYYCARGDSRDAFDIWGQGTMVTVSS VL: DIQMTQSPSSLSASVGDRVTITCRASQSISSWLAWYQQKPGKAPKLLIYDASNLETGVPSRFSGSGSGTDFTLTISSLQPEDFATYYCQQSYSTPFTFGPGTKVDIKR
Recorded Result: 1.7
